- Format: in vivo, human
- conditions: human, plasma, AUCinf, GM (CV%), total AUCinf; NCIc moderate group
recorded endpoint: AUC(0-inf) (ng·h/mL)

Known AUC(0-inf) results, listed for orientation:
COc1cc2ncnc(Nc3ccc(F)c(Cl)c3)c2cc1NC(=O)/C=C/CN1CCCCC1 [Dacomitinib, dacomitinib] | 583
COc1cc(Nc2c(C#N)cnc3cc(OCCCN4CCN(C)CC4)c(OC)cc23)c(Cl)cc1Cl [Bosutinib, bosutinib] | 1860

P. CNC(=O)c1ccccc1Sc1ccc2c(/C=C/c3ccccn3)n[nH]c2c1 [Axitinib, axitinib]
Q. CCN(CC)CCNC(=O)c1c(C)[nH]c(/C=C2\C(=O)Nc3ccc(F)cc32)c1C [Sunitinib, sunitinib]
### Prompt Compare AUC(0-inf): is it lower for P or for Q ? Identify your selection by its label.
### Response P
(P: 410 ng·h/mL, Q: 1530 ng·h/mL)

---

- Format: in vivo, human
- conditions: human, plasma, AUCinf, GM (CV%), total AUCinf; NCIc mild group
recorded endpoint: AUC(0-inf) (ng·h/mL)

CCN(CC)CCNC(=O)c1c(C)[nH]c(/C=C2\C(=O)Nc3ccc(F)cc32)c1C | 1690

a. CNC(=O)c1ccccc1Sc1ccc2c(/C=C/c3ccccn3)n[nH]c2c1
b. COc1cc(Nc2c(C#N)cnc3cc(OCCCN4CCN(C)CC4)c(OC)cc23)c(Cl)cc1Cl
c. COc1cc2ncnc(Nc3ccc(F)c(Cl)c3)c2cc1NC(=O)/C=C/CN1CCCCC1
### Prompt Reorder the items by AUC(0-inf), least to greatest. Quick reminder: the answer is the labels in the order asked.
### Response a, c, b

---

- Type: in vivo, human
- conditions: human, plasma, AUCinf, GM (CV%), total AUCinf; NCIc normal group
recorded endpoint: AUC(0-inf) (ng·h/mL)

CCN(CC)CCNC(=O)c1c(C)[nH]c(/C=C2\C(=O)Nc3ccc(F)cc32)c1C [Sunitinib, sunitinib] | 1340
COc1cc(Nc2c(C#N)cnc3cc(OCCCN4CCN(C)CC4)c(OC)cc23)c(Cl)cc1Cl [Bosutinib, bosutinib] | 1130

A. CNC(=O)c1ccccc1Sc1ccc2c(/C=C/c3ccccn3)n[nH]c2c1 [Axitinib, axitinib]
B. COc1cc2ncnc(Nc3ccc(F)c(Cl)c3)c2cc1NC(=O)/C=C/CN1CCCCC1 [Dacomitinib, dacomitinib]
### Prompt Compare AUC(0-inf): is it lower for A or for B ? Identify your selection by its label.
### Response A

---

- Type: in vivo, human
- conditions: human, plasma, AUCinf, GM (CV%), total AUCinf; NCIc severe group
recorded endpoint: AUC(0-inf) (ng·h/mL)

A. COc1cc2ncnc(Nc3ccc(F)c(Cl)c3)c2cc1NC(=O)/C=C/CN1CCCCC1
B. COc1cc(Nc2c(C#N)cnc3cc(OCCCN4CCN(C)CC4)c(OC)cc23)c(Cl)cc1Cl
### Prompt Compare AUC(0-inf): is it lower for A or for B ? Identify your selection by its label.
### Response A

---

- Format: in vivo, human
- conditions: human, plasma, AUCinf, GM (CV%), total AUCinf; Child-Pugh mild HI group
recorded endpoint: AUC(0-inf) (ng·h/mL)

Known AUC(0-inf) results, listed for orientation:
CNC(=O)c1ccccc1Sc1ccc2c(/C=C/c3ccccn3)n[nH]c2c1 [Axitinib, axitinib] | 122
COc1cc(Nc2c(C#N)cnc3cc(OCCCN4CCN(C)CC4)c(OC)cc23)c(Cl)cc1Cl [Bosutinib, bosutinib] | 1940

1. COc1cc2ncnc(Nc3ccc(F)c(Cl)c3)c2cc1NC(=O)/C=C/CN1CCCCC1 [Dacomitinib, dacomitinib]
2. CCN(CC)CCNC(=O)c1c(C)[nH]c(/C=C2\C(=O)Nc3ccc(F)cc32)c1C [Sunitinib, sunitinib]
### Prompt Compare AUC(0-inf): is it lower for 1 or for 2 ? Identify your selection by its label.
### Response 1

---

- Assay type: in vivo, human
- conditions: human, plasma, AUCinf, GM (CV%), total AUCinf; Child-Pugh moderate HI group
recorded endpoint: AUC(0-inf) (ng·h/mL)

COc1cc(Nc2c(C#N)cnc3cc(OCCCN4CCN(C)CC4)c(OC)cc23)c(Cl)cc1Cl | 1730

1. CCN(CC)CCNC(=O)c1c(C)[nH]c(/C=C2\C(=O)Nc3ccc(F)cc32)c1C
2. COc1cc2ncnc(Nc3ccc(F)c(Cl)c3)c2cc1NC(=O)/C=C/CN1CCCCC1
3. CNC(=O)c1ccccc1Sc1ccc2c(/C=C/c3ccccn3)n[nH]c2c1
### Prompt Sort by AUC(0-inf), descending. Quick reminder: the answer is the labels in the order asked.
### Response 1, 2, 3
(1: 1480 ng·h/mL, 2: 682 ng·h/mL, 3: 304 ng·h/mL)
